Reference for the values: patent US9144239B2

system: Venturia inaequalis; assay: Fungicidal activity: apple scab (VENTIN); format: in vivo; conditions: 24 h, 1 Day Protectant, read-out: Disease Control VENTIN 1 DP
observable: pest or weed control at 100 ppm

Worked set:
{"molecule": "COc1ccnc(C(=O)N[C@H]2COC[C@H](OCCCc3ccccc3)[C@@H](OCCCc3ccccc3)[C@H](C)OC2=O)c1OCOC(C)=O [Compound 60]", "system": "Venturia inaequalis", "pest or weed control at 100 ppm": "0 to 80%"}
{"molecule": "COc1ccnc(C(=O)N[C@H]2COC[C@H](Oc3ccccc3)[C@@H](OCC(C)C)[C@H](C)OC2=O)c1OCOC(C)=O [Compound 86]", "system": "Venturia inaequalis", "pest or weed control at 100 ppm": "0 to 80%"}
{"molecule": "COc1ccnc(C(=O)N[C@H]2COC[C@H](OCCCC(F)(F)F)[C@@H](OCCCC(F)(F)F)[C@H](C)OC2=O)c1OCOC(C)=O [Compound 68]", "system": "Venturia inaequalis", "pest or weed control at 100 ppm": "0 to 80%"}

Exam item: Recorded pest or weed control at 100 ppm for COc1ccnc(C(=O)N[C@H]2COC[C@H](OCC(C)C)[C@@H](OCC(C)C)[C@H](C)OC2=O)c1OCOC(C)=O [Compound 3] with Venturia inaequalis, please?
Marked response: 0 to 80%

Exam item: Please provide the recorded pest or weed control at 100 ppm for CCCCO[C@H]1COC[C@H](NC(=O)c2nccc(OC)c2OCOC(C)=O)C(=O)O[C@@H](C)[C@@H]1OC(=O)C(C)C [Compound 47] , tested on Venturia inaequalis.
Marked response: 80 to 100%

Exam item: Record COc1ccnc(C(=O)N[C@H]2COC[C@H](Oc3ccc(F)cc3)[C@@H](Oc3ccc(F)cc3)[C@H](C)OC2=O)c1OCOC(C)=O [Compound 231] : what is its pest or weed control at 100 ppm with Venturia inaequalis?
Marked response: 0 to 80%

###

Quick reference: pest or weed control at 100 ppm of the listed items.
test system: Puccinia triticina; synonym: Puccinia recondita f. sp. tritici; experiment: Fungicidal activity: wheat brown rust (PUCCRT), wheat seedlings; assay type: in vivo; details: 72 h; 100 ppm; 3 Day Curative; wheat; read-out: Disease Control PUCCRT 3DC

Use the examples below as a reference point.
{"compound": "COCCC(=O)Oc1c(OC)ccnc1C(=O)N[C@H]1COC[C@H](Oc2ccccc2)[C@@H](Oc2ccccc2)[C@H](C)OC1=O [Compound 235]", "system": "Puccinia triticina; synonym: Puccinia recondita f. sp. tritici", "pest or weed control at 100 ppm": "80 to 100%"}
{"compound": "CCCCO[C@H]1COC[C@H](NC(=O)c2nccc(OC)c2OCOC(C)=O)C(=O)O[C@@H](C)[C@@H]1OC(=O)C(C)C [Compound 47]", "system": "Puccinia triticina; synonym: Puccinia recondita f. sp. tritici", "pest or weed control at 100 ppm": "80 to 100%"}

Exam item: Any idea what pest or weed control at 100 ppm was measured for CCC(C)(C)O[C@H]1COC[C@H](NC(=O)c2nccc(OC)c2O)C(=O)O[C@@H](C)[C@@H]1OCC(C)C [Compound 71] ?
Marked response: 0 to 80%

Exam item: // pest or weed control at 100 ppm lookup, key: CCCCO[C@H]1COC[C@H](NC(=O)c2nccc(OC)c2O)C(=O)O[C@@H](C)[C@@H]1OC [Compound 36]
Marked response: 80 to 100%

Exam item: Item under review: CCCCO[C@H]1COC[C@H](NC(=O)c2nccc(OC)c2OCOC(C)=O)C(=O)O[C@@H](C)[C@@H]1OCC(C)C [Compound 50] . Reported pest or weed control at 100 ppm?
Marked response: 80 to 100%

Exam item: // query pest or weed control at 100 ppm value for entry COc1ccnc(C(=O)N[C@H]2COC[C@H](Oc3ccccc3)[C@@H](OCC=C3CCCCC3)[C@H](C)OC2=O)c1O [Compound 212]
Marked response: 0 to 80%

Exam item: Which pest or weed control at 100 ppm value belongs to COc1ccnc(C(=O)N[C@H]2COC[C@H](OCC(C)C)[C@@H](O)[C@H](C)OC2=O)c1O [Compound 70] ?
Marked response: 0 to 80%

Exam item: What does the record list as pest or weed control at 100 ppm for COc1ccnc(C(=O)N[C@H]2COC[C@H](OCC(C)C)[C@@H](OCC(C)C)[C@H](C)OC2=O)c1O [Compound 1] ?
Marked response: 80 to 100%

Exam item: Which pest or weed control at 100 ppm value belongs to COc1ccnc(C(=O)N[C@H]2COC[C@H](OCC(C)C)[C@@H](Oc3cccc(Cl)c3)[C@H](C)OC2=O)c1O [Compound 194] ?
Marked response: 80 to 100%

Exam item: Fill in: pest or weed control at 100 ppm of COc1ccnc(C(=O)N[C@H]2COC[C@H](OC(=O)C(C)C)[C@@H](OC(=O)C(C)C)[C@H](C)OC2=O)c1OCOC(C)=O [Compound 57] is ___
Marked response: 80 to 100%

Exam item: Fill in the blank: the reported pest or weed control at 100 ppm of COc1ccnc(C(=O)N[C@H]2COC[C@H](Oc3ccccc3)[C@@H](Oc3ccccc3)[C@H](C)OC2=O)c1OCOC(C)=O [Compound 84] is ____.
Marked response: 80 to 100%

Exam item: Report pest or weed control at 100 ppm for COc1ccnc(C(=O)N[C@H]2COC[C@H](OCC3CC3)[C@@H](OCC3CC3)[C@H](C)OC2=O)c1O [Compound 209] please.
Marked response: 0 to 80%

Exam item: What value of pest or weed control at 100 ppm has been recorded for this entry: CCCCO[C@H]1COC[C@H](NC(=O)c2nccc(OC)c2O)C(=O)O[C@@H](C)[C@@H]1OCC(C)C [Compound 48]
Marked response: 80 to 100%

Exam item: # pest or weed control at 100 ppm lookup, item COc1ccnc(C(=O)N[C@H]2COC[C@H](Oc3ccccc3)[C@@H](OCC(C)C)[C@H](C)OC2=O)c1O [Compound 83]
Marked response: 80 to 100%

###

Quick list: melting point per entry.

The cases that follow already have their melting point on record.
{"molecule": "CCCCO[C@H]1COC[C@H](NC(=O)c2nccc(OC)c2O)C(=O)O[C@@H](C)[C@@H]1OC [Compound 36]", "melting point": "118 to 120 °C"}
{"molecule": "Cc1ccc(O[C@H]2[C@H](C)OC(=O)[C@@H](N)COC[C@@H]2Oc2ccc(C)cc2)cc1.Cl", "melting point": "213 to 216 °C"}
{"molecule": "C=C(C)CO[C@@H]1[C@@H](OCC(=C)C)COC[C@H](NC(=O)OCc2ccccc2)C(=O)O[C@H]1CC [Compound 88]", "melting point": "108 to 110 °C"}

Note: attention shifts to another entry.
Exam item: What does the data say about its melting point? Entry: CC(C)CO[C@H]1[C@H](C)OC(=O)[C@@H](N)COC[C@@H]1OCC(C)C [Compound 160]
Marked response: 144 to 146 °C

###

Measured melting point values are reported for all entries that follow.

{"entry-smiles": "C[C@@H]1OC(=O)[C@@H](N)COC[C@H](Oc2ccccc2)[C@H]1OC1CCCC1.Cl", "melting point": "217 to 219 °C"}
{"entry-smiles": "CCCCO[C@H]1[C@H](C)OC(=O)[C@@H](NC(=O)c2nccc(OC)c2O)COC[C@@H]1OCc1ccccc1", "melting point": "105 to 107 °C"}
{"entry-smiles": "C=C(C)CO[C@H]1COC[C@H](NC(=O)OCc2ccccc2)C(=O)OC[C@@H]1OCC(=C)C", "melting point": "66 to 68 °C"}
{"entry-smiles": "C[C@@H]1OC(=O)[C@@H](N)COC[C@H](Oc2ccccc2)[C@H]1Oc1ccccc1.Cl", "melting point": "227 to 229 °C"}
{"entry-smiles": "C[C@@H]1OC(=O)[C@@H](NC(=O)OC(C)(C)C)COC[C@H](OCc2ccccc2)[C@H]1OCc1ccccc1", "melting point": "69 to 71 °C"}
{"entry-smiles": "CC(C)CO[C@H]1[C@H](C)OC(=O)[C@@H](N(C(=O)OC(C)(C)C)C(=O)OC(C)(C)C)COC[C@@H]1Oc1ccc(F)cc1", "melting point": "108 °C"}

Exam item: Which melting point value belongs to `CCCCO[C@H]1COC[C@H](NC(=O)c2nccc(OC)c2O)C(=O)O[C@@H](C)[C@@H]1OCC(C)(C)Cl` ?
Marked response: 115 to 117 °C

Exam item: Looking for the measured melting point of `CCCCO[C@H]1COC[C@H](NC(=O)c2nccc(OC)c2O)C(=O)O[C@@H](C)[C@@H]1OCc1ccccc1` , can you help?
Marked response: 117 to 119 °C

###

pest or weed control at 100 ppm: recorded values
test system: Puccinia triticina; synonym: Puccinia recondita f. sp. tritici; assay: Fungicidal activity: wheat brown rust (PUCCRT), wheat seedlings; assay type: in vivo; settings: 72 h; 100 ppm; 3 Day Curative; wheat; read-out: Disease Control PUCCRT 3DC

Exam item: # pest or weed control at 100 ppm lookup, item CCCCCO[C@H]1[C@H](C)OC(=O)[C@@H](NC(=O)c2nccc(OC)c2O)COC[C@@H]1OCCCCC [Compound 62]
Marked response: 80 to 100%

Exam item: What value of measured pest or weed control at 100 ppm is listed for CCC(C)(C)O[C@H]1[C@H](C)OC(=O)[C@@H](NC(=O)c2nccc(OC)c2O)COC[C@@H]1OCC(C)C [Compound 79] ?
Marked response: 80 to 100%

Exam item: Fill in: pest or weed control at 100 ppm of CCCCO[C@H]1COC[C@H](NC(=O)c2nccc(OC)c2OCOC(C)=O)C(=O)O[C@@H](C)[C@@H]1OCCC [Compound 45] is ___
Marked response: 80 to 100%

Exam item: pest or weed control at 100 ppm for COc1ccnc(C(=O)N[C@H]2COC[C@H](Oc3ccc(F)cc3)[C@@H](OCC(C)C)[C@H](C)OC2=O)c1OCOC(C)=O [Compound 228] ?
Marked response: 80 to 100%

Exam item: Name the reported pest or weed control at 100 ppm value associated with the molecule COc1ccnc(C(=O)N[C@H]2COC[C@H](O)[C@@H](OCC(C)C)[C@H](C)OC2=O)c1O [Compound 72]
Marked response: 0 to 80%

Exam item: If you can, please state the reported pest or weed control at 100 ppm value of CCCCO[C@H]1[C@H](C)OC(=O)[C@@H](NC(=O)c2nccc(OC)c2OCOC(C)=O)COC[C@@H]1OCc1ccccc1 [Compound 34] .
Marked response: 80 to 100%

Exam item: Look at this molecule and give its reported pest or weed control at 100 ppm. COc1ccnc(C(=O)N[C@H]2COC[C@H](OC3CCCC3)[C@@H](Oc3ccccc3)[C@H](C)OC2=O)c1OCOC(C)=O [Compound 223]
Marked response: 80 to 100%

Exam item: Which measured pest or weed control at 100 ppm value corresponds to CCOCC(=O)OCOc1c(OC)ccnc1C(=O)N[C@H]1COC[C@H](Oc2ccc(C)cc2)[C@@H](Oc2ccc(C)cc2)[C@H](C)OC1=O [Compound 225] ?
Marked response: 80 to 100%

Exam item: Which measured pest or weed control at 100 ppm value corresponds to COc1ccnc(C(=O)N[C@H]2COC[C@H](OCC(C)C)[C@@H](Oc3ccccc3)[C@H](C)OC2=O)c1OCOC(C)=O [Compound 85] ?
Marked response: 80 to 100%

Exam item: I am curious: what pest or weed control at 100 ppm value has been reported for CCCCO[C@H]1COC[C@H](NC(=O)c2nccc(OC)c2O)C(=O)O[C@@H](C)[C@@H]1OC(=O)c1ccccc1 [Compound 66] ?
Marked response: 80 to 100%

Exam item: // returns reported pest or weed control at 100 ppm for input COc1ccnc(C(=O)N[C@H]2COC[C@H](OCC(C)C)[C@@H](OCC(C)C)[C@H](C)OC2=O)c1OCOC(C)=O [Compound 3]
Marked response: 80 to 100%

Exam item: Can you look up the measured pest or weed control at 100 ppm of COc1ccnc(C(=O)N[C@H]2CO[C@@H](C)[C@H](OCC(C)C)[C@@H](OCC(C)C)[C@H](C)OC2=O)c1O [Compound 26] for me?
Marked response: 80 to 100%

Exam item: Request the reported pest or weed control at 100 ppm associated with COc1ccnc(C(=O)N[C@@H]2COC[C@H](OCC(C)C)[C@@H](OCC(C)C)[C@@H](COCC(C)C)OC2=O)c1OCOC(C)=O [Compound 18]
Marked response: 0 to 80%
